Provenance of the data: the RNAGym collection of RNA variant scans (doi:10.7554/elife.80360)

B1: CPEB3 Ribozyme (parent)
chain: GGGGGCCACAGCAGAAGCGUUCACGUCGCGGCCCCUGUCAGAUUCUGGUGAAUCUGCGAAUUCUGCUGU

# Variants of: B1
# Assay: self-cleavage, relative activity (ratio to wild type); higher = more cleavage; co-transcriptional
Listing of entries alongside the reported self-cleavage.
// return a plain number; no unit text

Below: 5 variants and their reported self-cleavage.
| Variant Name | Measured Value |
| --- | --- |
| G4A C39G | 0.717 |
| G25A U46G | 0.174 |
| U20A U38A | 0.188 |
| C27U G28A | 0.126 |
| A16C U44A | 0.0709 |

Noted for G28C G50A : its self-cleavage reads 0.166

// self-cleavage value for U43G G48U : 1.01

Memo: G30C U46C , reported self-cleavage: 0.613

Reported self-cleavage of A16C U55C : 0.165

Sample G5A A13G ; self-cleavage observed: 0.88

What the record says about G1A U38A : self-cleavage is 0.0918

Reported self-cleavage of G3A U43C : 0.41

Form field self-cleavage, entry G31U G68U : 0.974

Documented self-cleavage of U21G C24G : 0.0852

Reported self-cleavage for G1U G25C was 0.0418

# variant U38C U64A ; its self-cleavage = 0.772

For reference, reported self-cleavage for C24U G30C stands at 0.152

Reported self-cleavage of U21C G28A : 0.192

For record C32U U64C the listed self-cleavage is 0.899

Summary for this variant, U20C C24A : self-cleavage is 0.191

So for C39U U69G , the logged self-cleavage turned out to be 1.05

Recorded self-cleavage (variant U55G G58U ): 0.946
